Record form. Attribute: growth. Fill in for each entry.
- System: OVCAR-5 ovarian
- Assay comment: NCI-60 one-dose screen, 48 h (100 = growth as untreated, 0 = no growth, -100 = all killed)
- Recorded conditions: 10 µM unless noted
The panel holds about 83,000 compounds, 20% with a hit somewhere; the sample as a whole holds those more often. Activity calls are given as the source filed them. How the source made its calls: active means growth percent below 10; inactive means the rest.

Examples with answers:
- COc1ccc(C2C(C#N)=C(N)Oc3c2sc2c(F)cccc32)cc1 (centres undefined): 69.3% (inactive)
- COC(=O)[C@@H]1[C@H]2C[C@H]3c4[nH]c5cc(OC)ccc5c4CCN3C[C@@H]2C[C@H](OC(=O)/C=C/c2ccnc(OC)c2)[C@H]1OC: 102% (inactive)
- C=C(C)[C@@H]1CC[C@]2(/C=N/Nc3ccncc3)CC[C@]3(C)[C@H](CC[C@@H]4[C@@]5(C)CCCNC(C)(C)[C@@H]5CC[C@]43C)[C@@H]12: 105% (inactive)

Which growth is reported for this molecule? N#Cc1cnc2cc(OC[C@@H](O)CO)c(NC(=O)CC3CSSC3)cc2c1Nc1ccc(OCc2cccc(F)c2)c(Cl)c1
-72.8% (active)
